- STUDY_SYSTEM: AKR1C1 (Homo sapiens)
- Sequence (Q04828 whole entry, the tested form may be a part): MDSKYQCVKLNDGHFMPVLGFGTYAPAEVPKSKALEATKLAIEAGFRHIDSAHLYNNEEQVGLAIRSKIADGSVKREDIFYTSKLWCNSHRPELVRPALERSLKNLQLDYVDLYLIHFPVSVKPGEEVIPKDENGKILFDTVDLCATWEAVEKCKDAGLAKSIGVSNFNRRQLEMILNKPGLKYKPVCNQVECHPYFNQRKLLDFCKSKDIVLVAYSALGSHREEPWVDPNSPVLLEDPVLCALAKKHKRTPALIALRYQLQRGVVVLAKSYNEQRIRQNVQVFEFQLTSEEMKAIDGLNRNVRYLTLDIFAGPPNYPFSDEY
- METHOD: Enzyme activity (NADPH) assay with s-tetralol, recombinant GST-AKR1C1;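 further: GST-fused AKR1C1 expressed in E. coli and purified by glutathione affinity, control wells received DMSO instead of compound, duplicate samples from a single experiment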
- Type: biochemical
- Set-up: made in house; host or cells: Escherichia coli JM109
- STUDY_CONDITIONS: 2 μM compound; Supplementary Table 1; read-out: % inhibition
MEASURE: inhibition at 2 µM (%)
Express the result in % but write the number alone.

**Q:** Return reported inhibition at 2 µM; argument: COc1cc(C(=O)O[C@H]2[C@@H]3C=CO[C@@H](O[C@@H]4O[C@H](CO)[C@@H](O)[C@H](O)[C@H]4O)[C@@H]3[C@@]3(CO)O[C@@H]23)ccc1O [Picroside Ⅱ]
**A:** 43

**Q:** Also, C[C@@H]1C(=O)O[C@H]2C[C@@]34[C@H]5C[C@@H](C(C)(C)C)[C@]36[C@@H](OC(=O)[C@@H]6O)O[C@@]4(C(=O)O5)[C@]21O [Ginkgolide A] please.
**A:** 31.1

**Q:** Field entry: O=c1c(O)c(-c2ccccc2)oc2cc(O)cc(O)c12 [3,5,7-Trihydroxyflavone]
**A:** 23.9

**Q:** What would you report for COc1ccc2cc1Oc1ccc(cc1)C[C@H]1c3cc(c(OC)cc3CCN1C)Oc1c(O)c(OC)cc3c1[C@H](C2)N(C)CC3 ?
**A:** -14.2

**Q:** Quick one: C[C@@H]1O[C@@H](O[C@@H]2[C@@H](O)[C@H](OCCc3ccc(O)c(O)c3)O[C@H](CO)[C@H]2OC(=O)/C=C/c2ccc(O)c(O)c2)[C@H](O)[C@H](O)[C@H]1O [Acteoside]
**A:** -1.15

**Q:** Then COc1cc(C[C@H]2C(=O)OC[C@@H]2Cc2ccc(OC)c(OC)c2)ccc1O ?
**A:** -5.57

**Q:** Input O=c1ccc2cc3ccoc3cc2o1
**A:** 4.89
